Tested on: velvetleaf (Abutilon theophrasti)
assay: Test G Pre-Emergence Protocol
Format: in vivo
condition notes: Abutilon theophrasti, pre-emergence, 312 h, 250 g ai/ha, evaluated after 13 days, read-out: Velvetleaf damage rating (100=total damage to plant; 0=no damage to plant)

compound	uom	pest or weed control at 250 g/ha
Cc1ccc(NC(=O)[C@H]2C(=O)N(C)C[C@@H]2c2ccc(C(F)(F)F)cc2)c(C)c1C (racemic) [Compound 1448]	%	0
COc1cc(C)cc([C@@H]2CN(C)C(=O)[C@H]2C(=O)Nc2cccc(F)c2C)c1 (racemic) [Compound 1791]	%	40
CN1C[C@H](c2ccc(C(F)(F)F)cc2)[C@@H](C(=O)Nc2cccc(F)c2S(C)(=O)=O)C1=O (racemic) [Compound 1680]	%	90
CN1C[C@@H](c2ccc(C(F)(F)F)cc2)[C@H](C(=O)Nc2cnccc2C(F)(F)F)C1=O (racemic) [Compound 1401]	%	70
CN1C[C@@H](c2cc(Br)cc(Oc3ccccc3)c2)[C@H](C(=O)Nc2cccc(F)c2F)C1=O (racemic) [Compound 1821]	%	0
CN1C[C@@H](c2ccc(C(F)(F)F)cc2)[C@H](C(=O)Nc2ncnn2C)C1=O (racemic) [Compound 1643]	%	0
CN1C[C@H](c2cccc(C(F)(F)F)c2)[C@@H](C(=O)Nc2cnccc2[N+](=O)[O-])C1=O (racemic) [Compound 1731]	%	0
CN1C[C@H](c2ccc(C(F)(F)F)cc2)[C@@H](C(=O)Nc2cnccc2S(C)(=O)=O)C1=O (racemic) [Compound 1746]	%	10
CCc1nnc(NC(=O)[C@@H]2C(=O)N(C)C[C@H]2c2ccc(C(F)(F)F)cc2)s1 (racemic) [Compound 1558]	%	0
CN1C[C@@H](c2ccc(C(F)(F)F)cc2)[C@H](C(=O)Nc2cc(C(C)(C)C)[nH]n2)C1=O (racemic) [Compound 1545]	%	0
C[C@@]1(C(=O)Nc2cccc(F)c2F)C(=O)NC[C@@H]1c1ccc(C(F)(F)F)cc1 (racemic) [Compound 1405]	%	0
CN1C[C@H](c2ccc(C(F)(F)F)cc2)[C@@H](C(=O)Nc2cccc(F)[n+]2[O-])C1=O (racemic) [Compound 1814]	%	0
CN1C[C@H](c2ccc(C(C)(C)C)cc2)[C@@H](C(=O)Nc2ccccc2F)C1=O (racemic) [Compound 1409]	%	0
CSc1ccncc1NC(=O)[C@H]1C(=O)N(C)C[C@@H]1c1ccc(C(F)(F)F)cc1 (racemic) [Compound 1749]	%	0
Cc1c(Cl)ncnc1NC(=O)[C@@H]1C(=O)N(C)C[C@H]1c1ccc(C(F)(F)F)cc1 (racemic) [Compound 1581]	%	0
CN1C[C@@H](c2ccc(C(F)(F)F)cc2)[C@H](C(=O)Nc2cnnc(Cl)c2Cl)C1=O (racemic) [Compound 1567]	%	0
CN1C[C@H](c2cccc(C(C)(C)C#N)c2)[C@@H](C(=O)Nc2cccc(F)c2F)C1=O (racemic) [Compound 1497]	%	0
CN1C[C@H](c2ccc(C(F)(F)F)cc2)[C@@H](C(=O)Nc2ccc(F)cc2S(C)(=O)=O)C1=O (racemic) [Compound 1483]	%	0
CN1C[C@@H](c2ccc(C(F)(F)F)cc2)[C@H](C(=O)Nc2ccnc(Cl)c2)C1=O (racemic) [Compound 1571]	%	0
CN1C[C@H](c2ccc(C(F)(F)F)cc2)[C@@H](C(=O)Nc2ccc(C(F)(F)F)cn2)C1=O (racemic) [Compound 1672]	%	0
